- assayProtocol: NCI Yeast Anticancer Drug Screen. Data for the rad50 strain (AID 155);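 also: 0% = growth of vehicle-only cultures of the same strain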
- conditionInfo: S. cerevisiae rad50 strain growth inhibition; at 50.0 µM; hits give high values
About 79,000 compounds went through this panel and 15% of them were active in at least one assay; those are over-represented in the sample as a whole.
observationType: growth inhibition (%)
Provide the reading as a plain figure in %.

Consider the reported growth inhibition for these molecules:
# molecule, unitString, endpointResult
rows = [
    ("COc1ccc2c(ccc3[nH]c4c(C)cnc(NCCCN)c4c32)c1", "%", -39.6),
    ("CCCC1OC(c2ccccc2)OCC1CC (stereo not drawn)", "%", 6.45),
    ("CC(C)(C)NC(=O)NCCCl", "%", 1),
]

-- ask Give recorded growth inhibition. CC(C)[C@@H]1CC[C@@H](C)C[C@H]1OC(=O)/C=C1\C(C(=O)O[C@@H]2C[C@H](C)CC[C@H]2C(C)C)[C@H]2C=C[C@@H]1O2 (stereo partly drawn)
-- reply -6.15

-- ask Give recorded growth inhibition. O=C1C(N=Nc2ccc(S(=O)(=O)Nc3ccccn3)cc2)C(=O)N(c2ccccc2)C(=S)N1c1ccccc1
-- reply 8.8

-- ask Give recorded growth inhibition. CCOC(=O)N(C)Cc1ccc(Cl)cc1
-- reply 5.75

-- ask Give recorded growth inhibition. C[N+](C)(C)CCCOC1=Nc2ccccc2O/C1=C/c1ccccc1
-- reply -52.2

-- ask Give recorded growth inhibition. Cc1cccnc1NC=O
-- reply -10.7

-- ask Give recorded growth inhibition. COc1cc2c(cc1OC)CN1CCc3ccccc3CC1C2 (stereo not drawn)
-- reply 15.3

-- ask Give recorded growth inhibition. CCN(CC)CC1(CC)COC(c2ccccc2)(c2ccccc2)OC1
-- reply -3.3

-- ask Give recorded growth inhibition. CC(CO)C1C[C@H](O)[C@@]2(C)CC(=O)C=C(CO)[C@@H]2C1 (stereo partly drawn)
-- reply 35

-- ask Give recorded growth inhibition. Cn1c2ccccc2n2c(=O)c3c(c(C#N)c12)CCCC3
-- reply -31.1

-- ask Give recorded growth inhibition. C1CC(CCN2CCOCC2)CCN1
-- reply -16.4

---

- assayProtocol: NCI Yeast Anticancer Drug Screen. Data for the mlh1 rad18 strain (AID 175)
- conditionInfo: S. cerevisiae mlh1 rad18 strain growth inhibition; at 50.0 µM; hits give high values
About 79,000 compounds went through this panel and 15% of them were active in at least one assay; those are over-represented in the sample as a whole.
observationType: growth inhibition (%)
Provide the reading as a plain figure in %.

Consider the reported growth inhibition for these molecules:
# molecule, unitString, endpointResult
records = [
    ("CC(=O)NC(C=O)C(O)C(O)C(O)C(=O)O (stereo not given)", "%", 10.5),
    ("CC(C)CC1=C(O)c2ccccc2C(=O)C1=O", "%", -2.4),
    ("CCCCNc1nnc(N)s1", "%", -27.9),
    ("O=C(NNc1ccccc1)NNc1ccccc1 (tested in a mixture with another compound)", "%", 1.65),
    ("CN(C)c1ccc(/C=C/c2ccnc3ccc(Br)cc23)cc1", "%", 9.35),
]

-- ask Give recorded growth inhibition. CC(C)(C)c1cc2c(O)c(c1)Cc1cc(C(C)(C)C)cc(c1O)Cc1cc(C(C)(C)C)cc(c1O)Cc1cc(C(C)(C)C)cc(c1O)Cc1cc(C(C)(C)C)cc(c1O)Cc1cc(C(C)(C)C)cc(c1O)Cc1cc(C(C)(C)C)cc(c1O)Cc1cc(C(C)(C)C)cc(c1O)C2
-- reply -15.1

-- ask Give recorded growth inhibition. N[C@H](CCC(=O)NCP(=O)(O)O)C(=O)O
-- reply -41.1

-- ask Give recorded growth inhibition. CC(=O)N(CN1C(=O)CCC1C(=O)O)c1cccc(O)c1 (stereo not given)
-- reply -66.7

-- ask Give recorded growth inhibition. C/C(=N/NC(N)=S)c1c[nH]c(=O)[nH]c1=O
-- reply -7.35

-- ask Give recorded growth inhibition. CCOC(=O)c1c(N2CCCC2)ncn(Cc2ccccc2)c1=S
-- reply -5

---

- assayProtocol: NCI Yeast Anticancer Drug Screen. Data for the mlh1 rad18 strain (AID 175)
- conditionInfo: S. cerevisiae mlh1 rad18 strain growth inhibition; at 50.0 µM; hits give high values
The panel holds about 79,000 compounds, 15% with a hit somewhere; the sample as a whole holds those more often.
Assign satisfied whenever growth inhibition does not fall below 20%; assign not satisfied whenever it does.

Solved entries:
# molecule, labelClass
data = [
    ("COc1cc(CC2c3cc(OC)c(OC)cc3CCN2C)c(Oc2cc3c(cc2OC)-c2c(OC)c(OC)c(OC)c4c2C(C3)N(C)CC4)cc1OC (stereo unspecified)", "not satisfied"),
    ("CCc1cc(Cc2cc(Cl)c(NC(=O)C(=O)C3NC(=O)NC3=O)c(CC)c2)cc(Cl)c1NC(=O)C(=O)C1NC(=O)NC1=O (stereo unspecified)", "not satisfied"),
    ("O=C(O)CCC(=O)CCC(=O)c1ccc(O)c2ncccc12", "satisfied"),
    ("CCOC(=O)/C=C(/O)CC(=O)OCC.[Cu+2]", "not satisfied"),
]

As a next step, examine the molecule that follows.
-- ask Does growth inhibition meet or surpass 20% for Cn1nnc2c1C(=O)c1ccccc1C2=O ?
-- reply not satisfied

---

Recorded growth inhibition, one value per entry.
- assayProtocol: NCI Yeast Anticancer Drug Screen. Data for the cln2 rad14 strain (AID 165);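 also: 0% = growth equal to vehicle treated cultures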
- conditionInfo: S. cerevisiae cln2 rad14 strain, at 50.0 µM, hits give high values
Compounds without any hit were thinned out: in the full panel of roughly 79,000, 15% have a hit.
Provide the reading as a plain figure in %.

-- ask Give recorded growth inhibition. Cn1c(NC(=O)C(=O)NC23CC4CC(CC(C4)C2)C3)nc2ccccc21
-- reply 5.8

---

- assayProtocol: NCI Yeast Anticancer Drug Screen. Data for the rad50 strain (AID 155);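 also: 0% = growth of vehicle-only cultures of the same strain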
- conditionInfo: S. cerevisiae rad50 strain growth inhibition; at 50.0 µM; hits give high values
This is part of a sample that, as a whole, favours compounds with a hit. Of some 79,000 tested, about 15% had one in any assay.
observationType: growth inhibition (%)
Provide the reading as a plain figure in %.

Consider the reported growth inhibition for these molecules:
# molecule, observationType, endpointResult
data = [
    ("COC(=O)C1OC(Sc2ncnc3nc[nH]c23)C(O)C(O)C1O (configuration not stated)", "growth inhibition", 3.15),
    ("CCCCC1(CO)NC(=O)NC1=O (configuration not stated)", "growth inhibition", -4.5),
    ("Oc1cccc2ccc[n+](CCc3ccccc3)c12", "growth inhibition", 1.4),
    ("COc1cccc(C2c3cc4c(cc3OC(N3CCCC3)C2C)OCO4)c1O (configuration not stated)", "growth inhibition", 13.6),
]

-- ask Give recorded growth inhibition. Clc1ccccc1/C=C(/c1ccccc1)c1ccccn1
-- reply 37.5

-- ask Give recorded growth inhibition. C=CCOC(=O)Nc1ccc(C)c(NC(=O)OCC=C)c1
-- reply -28.3

-- ask Give recorded growth inhibition. COc1ccc(C(=O)C2CC(=O)NC2=O)cc1 (configuration not stated)
-- reply -11.6

-- ask Give recorded growth inhibition. C/C(=N\NC(=S)Nc1ccc(S(=O)(=O)O)cc1)c1ccccn1
-- reply 21.3

-- ask Give recorded growth inhibition. CCCCN(CCCC)CCNC(c1ccc(Cl)cc1)c1ccc(OC)cc1 (configuration not stated)
-- reply 14.5

-- ask Give recorded growth inhibition. CCC(Nc1ccccc1)C(=O)O (configuration not stated)
-- reply -4.45

-- ask Give recorded growth inhibition. O=C(N/N=C/c1ccc(Cl)cc1Cl)c1cccc([N+](=O)[O-])c1
-- reply 0.65

-- ask Give recorded growth inhibition. CCCC(P(=O)(c1ccccc1)c1ccccc1)[P+](CC)(c1ccccc1)c1ccccc1 (configuration not stated)
-- reply 84.6

---

- assayProtocol: NCI Yeast Anticancer Drug Screen. Data for the bub3 strain (AID 167)
- conditionInfo: S. cerevisiae bub3 mutant strain, at 50.0 µM, hits give high values
The panel holds about 79,000 compounds, 15% with a hit somewhere; the sample as a whole holds those more often.
observationType: growth inhibition (%)
Provide the reading as a plain figure in %.

-- ask Give recorded growth inhibition. Clc1cc2nn(C3CCCCO3)nc2cc1Cl (centres undefined)
-- reply 16.9

-- ask Give recorded growth inhibition. S=c1nc[nH]c2c1CNC2
-- reply 5.25

-- ask Give recorded growth inhibition. CCCCOS(=O)(=O)c1ccc([N+](C)(C)C)cc1
-- reply 0.6

-- ask Give recorded growth inhibition. Cc1cccc(C(O)(c2cccc(C)c2)C2(O)CCCCC2)c1
-- reply 1

-- ask Give recorded growth inhibition. CCCCC(CC)C(O)CC(C)=O (centres undefined)
-- reply 14.2

-- ask Give recorded growth inhibition. Oc1ccc(Br)cc1C1Nc2ccccc2S1 (centres undefined)
-- reply 5.15

-- ask Give recorded growth inhibition. O=S(Cc1ccccc1)c1ccccc1Cn1cccc1 (centres undefined)
-- reply 14.2

-- ask Give recorded growth inhibition. Cc1cc2c(s1)C(=O)c1sccc1C2=O
-- reply 87.2

-- ask Give recorded growth inhibition. CC1(C)CCNc2ccccc2S1
-- reply -11.1

-- ask Give recorded growth inhibition. O=[N+]([O-])c1ccc(S(=O)c2ccc([N+](=O)[O-])cc2)cc1
-- reply -1.75

-- ask Give recorded growth inhibition. N#C[C@H]1CC2C=CC1C2 (some centres undefined)
-- reply 0.8

-- ask Give recorded growth inhibition. N#Cc1ccc(Br)cc1
-- reply -6.2

-- ask Give recorded growth inhibition. CCCCCCC1OCC(CC)(CC)CO1
-- reply -15.6

-- ask Give recorded growth inhibition. CCCCCCCCCCCCCCCCCCS
-- reply 8.3
